Target: T1, human Sortilin expressed on 293 / HEK293T cells (human, UniProt Q99523 78-830)
T1 construct: full-length recombinant human Sortilin; also called hSort; SORT1
Assay: FACS, 293 cells;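 also: antibodies at 10 µg/ml bound to cells for 1 h on ice, detected with PE-labelled anti-human secondary antibody by flow cytometry, reported as mean fluorescence intensity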
Decide using MFI: a value greater than or equal to 9000 is t, a smaller one is f.

BINDER: S-18 (antibody, V domains shown, IgG) VH: QVQLVQSGAEVKKPGSSVKVSCKASGGTFSSYAISWVRQAPGQGLEWMGSIIPIFGTANYAQKFQGRVTITADESTSTAYMELSSLRSEDTAVYYCARDKHGRRGYYYYMDVWGKGTTVTVSS VL: EIVLTQSPATLSLSPGERATLSCRASQSVSSYLAWYQQKPGQAPRLLIYDASNRATGIPARFSGSGSGTDFTLTISSLEPEDFAVYYCQQGANAPPRTFGGGTKVEIK
LABEL VALUE: t

BINDER: S-69 (antibody, V domains shown, IgG) VH: QVQLQESGPGLVKPSQTLSLTCTVSGGSISSGGYYWSWIRQHPGKGLEWIGYIYYSGSTYYNPSLKSRVTISVDTSKNQFSLKLSSVTAADTAVYYCARDRGGTHFGADHYYYGMDVWGQGTMVTVSS VL: EIVMTQSPATLSVSPGERATLSCRASQSVSSSLAWYQQKPGQAPRLLIYGASTRATGIPARFSGSGSGTEFTLTISSLQSEDFAVYYCQQAADWPITFGGGTKVEIK
LABEL VALUE: f

BINDER: S-19 (antibody, V domains shown, IgG) VH: QVQLVQSGAEVKKPGSSVKVSCKASGGTFSSYAISWVRQAPGQGLEWMGGIIPIFGTASYAQKFQGRVTITADESTSTAYMELSSLRSEDTAVYYCARESRIPGSGYYYYYGMDVWGQGTTVTVSS VL: DIQMTQSPSSLSASVGDRVTITCRASQSISSYLNWYQQKPGKAPKLLIYSASSLQSGVPSRFSGSGSGTDFTLTISSLQPEDFATYYCQQTDGKPPTFGGGTKVEIK
LABEL VALUE: t

BINDER: S-73 (antibody, V domains shown, IgG) VH: QVQLQESGPGLVKPSQTLSLTCTVSGGSISSGTYYWSWIRQHPGKGLEWIGYIYYSGSTYYNPSLKSRVTISVDTSKNQFSLKLSSVTAADTAVYYCARGVGRYRVADYWGQGTLVTVSS VL: EIVLTQSPATLSLSPGERATLSCRASQSVSSYLAWYQQKPGQAPRLLIYDASNRATGIPARFSGSGSGTDFTLTISSLEPEDFAVYYCQQASVYPPITFGGGTKVEIK
LABEL VALUE: f

Quick check, MFI >= 9000? S-61 (antibody, V domains shown, IgG) VH: QVQLQESGPGLVKPSETLSLTCAVSGYSISSGYYWGWIRQPPGKGLEWIGSIYHSGSTYYNPSLKSRVTISVDTSKNQFSLKLSSVTAADTAVYYCARGSPRFYYGSGSYLDLFDIWGQGTMVTVSS VL: EIVMTQSPATLSVSPGERATLSCRASQSVSSNLAWYQQKPGQAPRLLIYGASTRATGIPARFSGSGSGTEFTLTISSLQSEDFAVYYCQEYLNYPITFGGGTKVEIK f

src = patent US20220185898A1
